System: MS2 coat protein
protocolText: apparent Kd, MS2 coat protein; higher = weaker binding; RNA-MaP array
measurementSetup: designed as: OFF switch for flavin mononucleotide; no ligand
observedProperty: apparent Kd (nM)
Report the value in nM with no unit label.

Challenge: Tell me the measured apparent Kd of UAGAAUUAAGGAUAUACAGGAUCCGUACAAAUAUUGAUAGGACAUGAGGAUCACCCAUGUAGAAGGUAAGGCAG , please.
Response given: 21.1

Challenge: Tell me the measured apparent Kd of CCGAGGGUAGGAUAUUAGCACUUCUACAUGAGGAUCACCCAUGUACCUCAUCAUGAUGCCUAAGAAGGACCAGUGU , please.
Response given: 65.7

Challenge: Tell me the measured apparent Kd of CGUCAGUAAGGAUAUACCCGCACUUAACACGAGCGUCGUCGGUAGAAGGUACAUGAGGAUCACCCAUGUAGAAA , please.
Response given: 7.84

Challenge: Tell me the measured apparent Kd of UGUUUGGCUUCCUUUACAUGAGGAUCACCCAUGUUAUGUAAUUAGGAUAUCCAUGUGAGAUGGUUGGAGAAGGAAUGCAUGACG , please.
Response given: 27

Challenge: Tell me the measured apparent Kd of AGAGCGAAUCUAACAUGAGGAUCACCCAUGUGUUAUGUUCACGAGGAUAUGUAGUCACUUAGGCGACAGAAGGCGUUCCAAGUA , please.
Response given: 29.3

Challenge: Tell me the measured apparent Kd of CUGAGGUUAGGAUAUCUUCUGUUAUCUUCACGAUGAUAAACAGAGAAGGAACAUGAGGAUCACCCAUGUGGUCU , please.
Response given: 135

Challenge: Tell me the measured apparent Kd of AUGAAACAUGAGGAUCACCCAUGUGAGGAUAUGGUCUCGAACAAAAUACAAACACCAUCCAGAAGGCACAUGAA , please.
Response given: 29.8

Challenge: Tell me the measured apparent Kd of AAAUGGGAGGUACGCACCACUACAUGAGGAUCACCCAUGUAUAGAAGGCAGGUCUGGACUCGUCCUGAGGAUAUAUGAUUUGAC , please.
Response given: 17.9

Challenge: Tell me the measured apparent Kd of GUGGCGUAAGGAUAUCGUGGGAAGUGAUGAACGCUCUACUUCGAGAAGGUACAUGAGGAUCACCCAUGUGAGGG , please.
Response given: 151

Challenge: Tell me the measured apparent Kd of AACUGGAAGGAAGGAUAUUCAACCACGAUCAGUGCCAAGCACAUGAGGAUCACCCAUGUUGUCCUGAAGAAGGUCCUAUGUCAA , please.
Response given: 16.3

Challenge: Tell me the measured apparent Kd of UACUCGACUUAGAAGGGUUUGUGGACAGCCAGUGGCGUGCGUACAUGAGGAUCACCCAUGUCUCAACAGGAUAUAAGCAUUAGC , please.
Response given: 35

Challenge: Tell me the measured apparent Kd of AUCAAGUGAGGAUAUCCGUAGACUCCUAAUCAGCGACUCAAGGAGAAGGCACAUGAGGAUCACCCAUGUUAGAU , please.
Response given: 19.6

Challenge: Tell me the measured apparent Kd of GAUGACUUAGGAUAUCAAAUUCUCGACAUGAGGAUCACCCAUGUGUAUCCGCCAGGUUAGUGAGAAGGAAGUUGGA , please.
Response given: 91.3

Challenge: Tell me the measured apparent Kd of GGUACCGCGGUGAGGAUAUCCUGCGUUUGGCAGCUGGAGAAGGCACAUGAGGAUCACCCAUGUAAAGAGAAUGC , please.
Response given: 10.5

Challenge: Tell me the measured apparent Kd of UCACAACUAGGAUAUUUAGUGCUAUACAUGAGGAUCACCCAUGUCGUGUGCACUAGUACGAAAGAAGGAGUUAUCG , please.
Response given: 5.09

* * *

Test system: MS2 coat protein
protocolText: apparent Kd, MS2 coat protein; higher = weaker binding; RNA-MaP array; tryptophan 2.4 mM where present
measurementSetup: designed as: OFF switch for tryptophan; no ligand
Please provide measured apparent Kd for the entries that follow.
Report the value in nM with no unit label.

Challenge: Under MS2 coat protein: apparent Kd value of UUAUAAGUACCGGUCCUCAGAUCCUCAUGACGAGGACCGGUACGGCCGCCACUCGAAACAUGAGGAUCACCCAUGUAAUAAUACU ?
Response given: 26.4

Challenge: Under MS2 coat protein: apparent Kd value of AGAUGAGUCACGGCCGCCACUCACUACAGGUUCACCCUUGGUUAACAUGAGGAUCACCCAUGUGGGAGGACCGGGUGAUGAGCAU ?
Response given: 19.9

Challenge: Under MS2 coat protein: apparent Kd value of CUAUAAGUACCGGUCCUCAGAUCCUCAUGACGAGGACCGGUACGGCCGCCACUCGAAACAUGAGGAUCACCCAUGUAAUAAUAAU ?
Response given: 18.3

Challenge: Under MS2 coat protein: apparent Kd value of UAAUCCGGUCCUCGAUAGGUGAUCCUCUAACGAGGACCGGUACGGCCGCCACUCGAUAACAUGAGGAUCACCCAUGUAAUAAUAA ?
Response given: 44

Challenge: Under MS2 coat protein: apparent Kd value of AAUGUAUGGCACAUGAGGAUCACCCAUGUGCGAGGACCGGUACGGCCGCCACUCGGUCCUGGGAACUUAUUACUAUACAUUAAUG ?
Response given: 11.9

Challenge: Under MS2 coat protein: apparent Kd value of UGUAUUGGAAACAGUACUAGUGAUCCGGUCCGAGGACCGGUACGGCCGCCACUCGAAAUUAAUAAACAUGAGGAUCACCCAUGUA ?
Response given: 14.8

Challenge: Under MS2 coat protein: apparent Kd value of AAUAAUAAGGCGGCCGCCACUACACAUGAGGAUCACCCAUGUCUCGCGGGCUUGCGUUGGGAUUGUAGGACCGGGCCAAUAAUAA ?
Response given: 26.7

* * *

Please provide measured apparent Kd for the entries that follow.
System: MS2 coat protein
protocolText: apparent Kd, MS2 coat protein; higher = weaker binding; RNA-MaP array
measurementSetup: ligand present: flavin mononucleotide; designed as: OFF switch for flavin mononucleotide
Report the value in µM with no unit label.

Challenge: Under MS2 coat protein: apparent Kd value of UCGAUAAGAGGAUAUACGUGAUAGUUCUCCUCCCUAUGACUACAUGAGGAUCACCCAUGUAGAAGGCUUAACGG ?
Response given: 0.00654

Challenge: Under MS2 coat protein: apparent Kd value of CCUGAACGGGACAUGAGGAUCACCCAUGUAUGAGACUCAAAGAAGGAUAUCUUACAUACAGUUCGAGAGAAGGUCUAGCAAACG ?
Response given: 0.0549

Challenge: Under MS2 coat protein: apparent Kd value of GAUGACUUAGGAUAUCAAAUUCUCGACAUGAGGAUCACCCAUGUGUAUCCGCCAGGUUAGUGAGAAGGAAGUUGGA ?
Response given: 0.0778

Challenge: Under MS2 coat protein: apparent Kd value of UAUGUACGUAGGGACAUGAGGAUCACCCAUGUGGUCCGUAUUAGAAGGACGAAUACCGAUAAAACGUAGGAUAUAAUAACUCCG ?
Response given: 0.148

Challenge: Under MS2 coat protein: apparent Kd value of AGGAAUAAGACAGGAUAUCGUAAAAUAUAAAACCGAGAAGGGUCACAUGAGGAUCACCCAUGUGUUCCAACGGUGAUCCCUAGA ?
Response given: 0.0682

Challenge: Under MS2 coat protein: apparent Kd value of UCACUACAGUAGAAGGUAGGUACAUGAGGAUCACCCAUGUGGUAGGGAGAUUUACACUGUUUCGCUAAGGAUAUACUGGCCAAU ?
Response given: 0.125

Challenge: Under MS2 coat protein: apparent Kd value of GUCAUUGCGGAGGAUAUAAAGCAAACCAAGAUGUUAGAAGGCCGGACAUGAGGAUCACCCAUGUGAUUGCACGC ?
Response given: 0.015

Challenge: Under MS2 coat protein: apparent Kd value of AACUGGAAGGAAGGAUAUUCAACCACGAUCAGUGCCAAGCACAUGAGGAUCACCCAUGUUGUCCUGAAGAAGGUCCUAUGUCAA ?
Response given: 0.0115

Challenge: Under MS2 coat protein: apparent Kd value of GUAUGUGGUGAGGAUAUCCACCCGCGGGUAUAUGGAGAAGGCACUACAUGAGGAUCACCCAUGUUAACUUGCCA ?
Response given: 0.0318

Challenge: Under MS2 coat protein: apparent Kd value of AUUAGGCUGCAGGAUAUGAAUCAUGUAACAAUUUCAGAAGGGCAUACAUGAGGAUCACCCAUGUAGUGAUCCGC ?
Response given: 0.22

Challenge: Under MS2 coat protein: apparent Kd value of GGACGUGGGCAGGAUAUGCGAAUUGAUUGAGCGGCAGAAGGGCCUACAUGAGGAUCACCCAUGUAGAUGCUUAC ?
Response given: 0.0117

Challenge: Under MS2 coat protein: apparent Kd value of CGGUUACUAGGAUAUACAUGAGGAUCACCCAUGUGACCUCCCGUCACGCGUGUACUGGGUAGAAGGAGUCAGGU ?
Response given: 0.0348

Challenge: Under MS2 coat protein: apparent Kd value of GAUAGUCCCAAGGAUAUGUGGGUUUUAUCUUCUACAGAAGGUGGGACAUGAGGAUCACCCAUGUUGCGGCGAGG ?
Response given: 0.261

Challenge: Under MS2 coat protein: apparent Kd value of GGGAGAGAGGUCAGGAUAUUGCGGCGAAAUGCAGUCAAGAAGGGACAUGAGGAUCACCCAUGUACAUCAAGAGC ?
Response given: 0.0104

Challenge: Under MS2 coat protein: apparent Kd value of UCAGUUCAAGGAUAUACAUGAGGAUCACCCAUGUACCGCAAUGUAGAAAAGUGACGUAGUAGAAGGUGAAACGA ?
Response given: 0.021

Challenge: Under MS2 coat protein: apparent Kd value of CGUCAGUAAGGAUAUACCCGCACUUAACACGAGCGUCGUCGGUAGAAGGUACAUGAGGAUCACCCAUGUAGAAA ?
Response given: 0.00895

Challenge: Under MS2 coat protein: apparent Kd value of AGAAUGUCAGGAUAUACUCGCUAUGUCGCCAAGUCACGCCGACAUGAGGAUCACCCAUGUAGAAGGGACAAGUA ?
Response given: 0.0117

Challenge: Under MS2 coat protein: apparent Kd value of GAUUGAGUUCUAGGAUAUCCAGAGCGGCGUGGGACAUGAGGAUCACCCAUGUGCUCUAUGAUCAUGGAGAAGGAGAACCCCGUU ?
Response given: 0.046

Challenge: Under MS2 coat protein: apparent Kd value of GUCUUGUAAGGAUAUGAUCAGUAGGAAAGAUGGCAGCAUCAUCAGAAGGUACAUGAGGAUCACCCAUGUUGUGA ?
Response given: 0.0229

Challenge: Under MS2 coat protein: apparent Kd value of AAAUGGGAGGUACGCACCACUACAUGAGGAUCACCCAUGUAUAGAAGGCAGGUCUGGACUCGUCCUGAGGAUAUAUGAUUUGAC ?
Response given: 0.0165
